Values compiled from patent US12187701B2.

- Tested on: HCT116 cells
- Protocol Text: Antiproliferation assay, Cell Titer Glo, 72 hours
- Format: cell-based
- Experimental Context: Homo sapiens, HCT-116, 72 h
Readout Kind: pIC50
Numbers only, as −log10 of the molar value.

Give measured pIC50 for every item shown.
1. CN(C)C/C=C/C(=O)Nc1cccc(CN2CCC(NC(=O)c3n[nH]cc3NC(=O)c3c(Cl)cccc3Cl)CC2)c1
2. CCOc1cccc(Cl)c1C(=O)Nc1c[nH]nc1C(=O)NC1CCN(S(=O)(=O)c2cccc(NC(=O)/C=C/CN(C)C)c2)CC1
3. CN(C)C/C=C/C(=O)Nc1cccc(N2CC[C@@H](NC(=O)c3n[nH]cc3NC(=O)c3c(Cl)cccc3Cl)C2)c1
4. CN(C)C/C=C/C(=O)Nc1ccc(C(=O)Nc2cccc(NC(=O)c3n[nH]cc3NC(=O)c3c(Cl)cccc3Cl)c2)cc1

Marked response:
[8.66, 6.99, 6.91, 7.62]

Give measured pIC50 for every item shown.
1. COc1cccc(OC)c1C(=O)Nc1c[nH]nc1C(=O)NC1CCN(S(=O)(=O)c2cccc(NC(=O)/C=C/CN(C)C)c2)CC1
2. C=CC(=O)Nc1cccc(S(=O)(=O)N2CC[C@@H](NC(=O)c3n[nH]cc3NC(=O)c3c(Cl)cccc3Cl)C2)c1
3. C=CC(=O)Nc1ccc(N2CC[C@H](NC(=O)c3n[nH]cc3NC(=O)c3c(Cl)cccc3Cl)C2)cc1
4. COc1cccc(Cl)c1C(=O)Nc1c[nH]nc1C(=O)NC1CCN(S(=O)(=O)c2cccc(NC(=O)/C=C/CN(C)C)c2)CC1

Marked response:
[5.39, 6.33, 5.54, 6.28]

The value of pIC50 measured for the compound C=CC(=O)Nc1cccc(CNC(=O)c2n[nH]cc2NC(=O)c2c(Cl)cccc2Cl)c1 turned out to be 5.07

* * *

Assign IC50 to each entry below.
- Tested on: HCT116 cells
- Protocol Text: Antiproliferation assay, Cell Titer Glo, 72 hours
- Assay type: cell-based
- Experimental Context: Homo sapiens, HCT-116, 72 h
One number for each entry, in nM.

Give measured IC50 for every item shown.
1. C=CC(=O)Nc1ccc(CNC(=O)c2n[nH]cc2NC(=O)c2c(Cl)cccc2Cl)cc1 [FMF-05-064-1]
2. C=CC(=O)Nc1cccc(CN2CCC(NC(=O)c3n[nH]cc3NC(=O)c3c(F)cccc3F)CC2)c1 [FMF-04-160-1]
3. C=CC(=O)Nc1cccc(S(=O)(=O)N2CCC(NC(=O)c3c(NC(=O)c4c(Cl)cccc4Cl)cnn3C)CC2)c1 [FMF-04-120-1]

Marked response:
[117, 7, 2420]

* * *

- Tested On: Cdk14/CycY (Homo sapiens (Human), UniProt O94921)
- Sequence (O94921 whole entry): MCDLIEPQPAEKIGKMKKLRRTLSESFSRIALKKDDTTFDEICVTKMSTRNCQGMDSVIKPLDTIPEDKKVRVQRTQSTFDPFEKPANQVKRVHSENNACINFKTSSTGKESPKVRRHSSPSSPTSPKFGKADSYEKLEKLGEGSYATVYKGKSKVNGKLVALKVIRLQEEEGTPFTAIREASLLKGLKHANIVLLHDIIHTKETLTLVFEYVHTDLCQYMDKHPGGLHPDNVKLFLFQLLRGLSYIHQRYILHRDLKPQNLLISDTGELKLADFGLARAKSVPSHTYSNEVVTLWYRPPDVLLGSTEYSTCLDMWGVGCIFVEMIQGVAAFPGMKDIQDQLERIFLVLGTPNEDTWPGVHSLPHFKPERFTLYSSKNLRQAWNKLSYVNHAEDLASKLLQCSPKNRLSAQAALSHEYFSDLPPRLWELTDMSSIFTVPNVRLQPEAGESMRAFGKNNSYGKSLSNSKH
- Sequence (Q8ND76 whole entry partner): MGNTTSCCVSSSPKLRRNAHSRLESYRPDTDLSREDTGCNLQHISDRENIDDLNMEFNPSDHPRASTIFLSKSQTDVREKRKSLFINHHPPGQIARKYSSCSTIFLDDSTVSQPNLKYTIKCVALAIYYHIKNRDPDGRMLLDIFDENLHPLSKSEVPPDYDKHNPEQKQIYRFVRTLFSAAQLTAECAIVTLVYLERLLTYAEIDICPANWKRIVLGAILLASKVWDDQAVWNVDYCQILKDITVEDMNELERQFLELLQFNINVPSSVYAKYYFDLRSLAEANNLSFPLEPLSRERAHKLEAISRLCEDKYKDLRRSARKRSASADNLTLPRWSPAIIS
- Protocol Text: Lanthascreen Eu kinase binding assay for Cdk14/CycY with 30 minute pre-incubation
- Experimental Context: 30 minute pre-incubation of kinase with compound; read-out: IC50 CDK14 binding by Lanthascreen
Mark each entry criterion met if its IC50 sits below 50 nM, and criterion not met for all others.

| Molecule | Assigned Category |
| --- | --- |
| C=CC(=O)Nc1cccc(S(=O)(=O)N2CCC(NC(=O)c3n[nH]cc3NC(=O)c3c(F)cccc3OC)CC2)c1 [FMF-04-097-1] | criterion met |
| C=CC(=O)Nc1cccc(S(=O)(=O)N2CCC(NC(=O)c3n[nH]cc3NC(=O)c3c(OC)cc(OC)cc3OC)CC2)c1 [FMF-05-028-1] | criterion met |
| CN(C)C/C=C/C(=O)Nc1ccc(CNC(=O)c2n[nH]cc2NC(=O)c2c(Cl)cccc2Cl)cc1 [FMF-05-064-2] | criterion not met |
| CN(C)C/C=C/C(=O)Nc1cccc(S(=O)(=O)N2CCC(NC(=O)c3nscc3NC(=O)c3c(Cl)cccc3Cl)CC2)c1 [FMF-04-089-2] | criterion not met |

Exam item: Field: below-cutoff. Rule: recorded IC50 strictly less than 50 nM. Subject: COc1cccc(F)c1C(=O)Nc1c[nH]nc1C(=O)NC1CCN(Cc2cccc(NC(=O)/C=C/CN(C)C)c2)CC1 [IHK-01-013-2]
Marked response: criterion met

* * *

- Tested On: Cdk14/CycY (Homo sapiens (Human), UniProt O94921)
- Protocol Text: Lanthascreen Eu kinase binding assay for Cdk14/CycY with 30 minute pre-incubation
- Experimental Context: 30 minute pre-incubation of kinase with compound; read-out: IC50 CDK14 binding by Lanthascreen
pIC50: −log10 of the molar value.
We use 7 as the dividing line for pIC50: on or above the line is Met, below is Not met.

Some solved entries appear below for comparison.
| Molecular String | Tested On | Assigned Category |
| --- | --- | --- |
| CN(C)C/C=C/C(=O)Nc1ccc(C(=O)N2CCC[C@@H](NC(=O)c3n[nH]cc3NC(=O)c3c(Cl)cccc3Cl)C2)cc1 | Cdk14/CycY (Homo sapiens (Human), UniProt O94921) | Not met |
| CN(C)C/C=C/C(=O)Nc1cccc(S(=O)(=O)N2CCC(NC(=O)c3n[nH]c(-c4ccccc4)c3NC(=O)c3c(Cl)cccc3Cl)CC2)c1 | Cdk14/CycY (Homo sapiens (Human), UniProt O94921) | Met |
| C=CC(=O)Nc1ccc(S(=O)(=O)N2CC[C@@H](NC(=O)c3n[nH]cc3NC(=O)c3c(Cl)cccc3Cl)C2)cc1 | Cdk14/CycY (Homo sapiens (Human), UniProt O94921) | Not met |

Exam item: Is pIC50 for C=CC(=O)Nc1cccc(C(=O)N2CCC[C@@H](NC(=O)c3n[nH]cc3NC(=O)c3c(Cl)cccc3Cl)C2)c1 at or above 7?
Marked response: Not met

Exam item: Is pIC50 for CN(C)C/C=C/C(=O)N1CCC(NC(=O)c2n[nH]cc2NC(=O)c2c(Cl)cccc2Cl)CC1 at or above 7?
Marked response: Not met

Exam item: Is pIC50 for C=CC(=O)Nc1cccc(NC(=O)c2n[nH]cc2NC(=O)c2c(Cl)cccc2Cl)c1 at or above 7?
Marked response: Not met

Exam item: Is pIC50 for C=CC(=O)Nc1cccc(S(=O)(=O)N2CCC(NC(=O)c3nscc3NC(=O)c3c(Cl)cccc3Cl)CC2)c1 at or above 7?
Marked response: Not met

* * *

Assign log10 IC50 to each entry below.
- Tested On: Cdk14/CycY (Homo sapiens (Human), UniProt O94921)
- Protocol Text: Lanthascreen Eu kinase binding assay for Cdk14/CycY with 30 minute pre-incubation
- Experimental Context: 30 minute pre-incubation of kinase with compound; read-out: IC50 CDK14 binding by Lanthascreen
Kindly note that the scale is log10 and the underlying IC50 is in µM.

Give measured log10 IC50 for every item shown.
1. CN(C)C/C=C/C(=O)Nc1cccc(S(=O)(=O)N2CCC(NC(=O)c3c(NC(=O)c4c(Cl)cccc4Cl)cnn3C)CC2)c1
2. COc1cccc(Cl)c1C(=O)Nc1c[nH]nc1C(=O)NC1CCN(S(=O)(=O)c2cccc(NC(=O)/C=C/CN(C)CCC(=O)NCCOCCOCCOCCNC(=O)CCCCC[C@H]3NC(=O)N[C@H]3C)c2)CC1
3. CN(C)C/C=C/C(=O)Nc1ccc(S(=O)(=O)N2CC[C@H](NC(=O)c3n[nH]cc3NC(=O)c3c(Cl)cccc3Cl)C2)cc1

Marked response:
[-0.31, -1.34, -1.39]

Give measured log10 IC50 for every item shown.
1. CN(C/C=C/C(=O)Nc1cccc(S(=O)(=O)N2CCC(NC(=O)c3n[nH]cc3NC(=O)c3c(Cl)cccc3Cl)CC2)c1)CCC(=O)NCCOCCOCCOCCNC(=O)CCCC[C@@H]1SC[C@@H]2NC(=O)N[C@@H]21
2. CN(C)C/C=C/C(=O)Nc1ccc(N2CCC(NC(=O)c3n[nH]cc3NC(=O)c3c(Cl)cccc3Cl)CC2)cc1
3. C=CC(=O)Nc1cccc(S(=O)(=O)N2CCC(NC(=O)c3n[nH]cc3NC(=O)c3c(Cl)ccc(OC)c3Cl)CC2)c1
4. C=CC(=O)Nc1cccc(C(=O)Nc2cccc(NC(=O)c3n[nH]cc3NC(=O)c3c(Cl)cccc3Cl)c2)c1
5. C=CC(=O)Nc1ccc(CN2CC[C@@H](NC(=O)c3n[nH]cc3NC(=O)c3c(Cl)cccc3Cl)C2)cc1

Marked response:
1. -2.10
2. -1.35
3. -3.40
4. -0.51
5. -0.59

Give measured log10 IC50 for every item shown.
1. CN(C)C/C=C/C(=O)Nc1cccc(N2CCC(NC(=O)c3n[nH]cc3NC(=O)c3c(Cl)cccc3Cl)CC2)c1
2. CN(C)C/C=C/C(=O)Nc1cccc(CN2CCC(NC(=O)c3n[nH]cc3NC(=O)c3c(F)cc(F)cc3F)CC2)c1
3. CN(C)C/C=C/C(=O)Nc1ccc(S(=O)(=O)N2CCC(NC(=O)c3n[nH]cc3NC(=O)c3c(Cl)cccc3Cl)CC2)cc1

Marked response:
-1.57
-1.77
-2.59
